# tgt: α2-adrenoceptor
# experiment description: Saturation radioligand binding of [^3H]-RX821002 to sheep anorectal tissue membranes
# run parameters: sheep rectal arteries; read-out: Kd of radioligand for α2-adrenoceptor
property: Kd (nM)
Numeric answer only, unit nM assumed.

Prompt line: Kd lookup needed for COC1(C2=NCCN2)COc2ccccc2O1 (stereo not shown) [[^3H]-RX821002] , thanks.
Response line: 1.42

----------
# tgt: α2-adrenoceptor
# experiment description: Saturation radioligand binding of [^3H]-RX821002 to sheep anorectal tissue membranes
# run parameters: sheep rectal vein and terminal branches of sheep rectal vessels; read-out: Kd of α2-adrenoceptor
pKd: −log10 of the molar value.
property: pKd

Prompt line: Bench note: what pKd did COC1(C2=NCCN2)COc2ccccc2O1 (stereo not shown) [[^3H]-RX821002] show?
Response line: ~9.52
